Source: ChEMBL document CHEMBL1146639

# TESTED_TARGET: Vasopressin V1a receptor (Rattus norvegicus, UniProt P30560)
# Sequence (P30560 whole entry): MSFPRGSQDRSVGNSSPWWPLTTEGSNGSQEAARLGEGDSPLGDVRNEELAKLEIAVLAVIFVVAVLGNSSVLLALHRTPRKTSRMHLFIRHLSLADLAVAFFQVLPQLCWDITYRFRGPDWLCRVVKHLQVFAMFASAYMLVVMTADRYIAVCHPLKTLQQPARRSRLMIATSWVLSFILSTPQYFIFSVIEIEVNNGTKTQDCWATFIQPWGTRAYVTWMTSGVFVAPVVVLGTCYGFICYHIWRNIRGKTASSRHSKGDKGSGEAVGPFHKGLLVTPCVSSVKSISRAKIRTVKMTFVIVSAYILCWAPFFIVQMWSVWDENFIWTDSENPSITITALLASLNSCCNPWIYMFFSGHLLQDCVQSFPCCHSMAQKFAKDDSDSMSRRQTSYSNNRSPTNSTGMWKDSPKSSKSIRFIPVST
# PROTOCOL_DETAILS: Evaluated for binding affinity towards vasopressin V1a receptor in rat
PROPERTY: pIC50
Formally, pIC50 is defined as -log10 of the concentration c, with c in mol/L.

Query: # query: pIC50 | item CN(C)CCNC(=O)C1=C[C@]2(CC1)CCN(C(=O)c1ccc(NC(=O)c3ccccc3-c3ccccc3)cc1)c1ccccc1C2 | system: Vasopressin V1a receptor (Rattus norvegicus, UniProt P30560)
Response: 7.48

---

# TESTED_TARGET: Vasopressin V2 receptor (Homo sapiens, UniProt P30518)
# Sequence (P30518 whole entry): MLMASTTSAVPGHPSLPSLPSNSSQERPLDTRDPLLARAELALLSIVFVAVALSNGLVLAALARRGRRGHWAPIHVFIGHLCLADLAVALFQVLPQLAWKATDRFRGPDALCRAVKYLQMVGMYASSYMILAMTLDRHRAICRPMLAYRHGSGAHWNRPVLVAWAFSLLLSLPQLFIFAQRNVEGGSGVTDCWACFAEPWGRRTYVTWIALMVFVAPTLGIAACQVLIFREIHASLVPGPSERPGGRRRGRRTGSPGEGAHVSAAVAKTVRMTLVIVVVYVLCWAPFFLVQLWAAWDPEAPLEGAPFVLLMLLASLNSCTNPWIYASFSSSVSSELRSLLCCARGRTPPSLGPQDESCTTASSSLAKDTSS
# PROTOCOL_DETAILS: Binding affinity measured by inhibition of 3[H] AVP binding to cloned human vasopressin V2 receptor
PROPERTY: IC50 (nM)
Give just the number in nM; leave the unit off.

- MOLECULE: "Cc1ccc(F)cc1C(=O)Nc1ccc(C(=O)N2CCC3(C=C(C(=O)NCCN4CCCCC4)CC3)Cc3ccccc32)cc1 (configuration not stated)"
  IC50 [nM]: 39
- MOLECULE: "Cc1ccc(F)cc1C(=O)Nc1ccc(C(=O)N2CCC3(C=C(C(=O)NCCN(C)C)CC3)Cc3ccccc32)cc1 (configuration not stated)"
  IC50 [nM]: 20

Query: So what does the record say about IC50 for COC(=O)CNC(=O)C1=CC2(CC1)CCN(C(=O)c1ccc(NC(=O)c3cc(F)ccc3C)cc1)c1ccccc1C2 (configuration not stated) ?
Response: 10

Query: Try this molecule too: CN(C)CCCNC(=O)C1=CC2(CC1)CCN(C(=O)c1ccc(NC(=O)c3ccccc3-c3ccccc3)cc1)c1ccccc1C2 (configuration not stated)
Response: 16

Query: Likewise for CN(C)CCNC(=O)C1=C[C@@]2(CC1)CCN(C(=O)c1ccc(NC(=O)c3ccccc3F)cc1)c1ccccc1C2 (single isomer, unassigned) ?
Response: 341
